# Measured On: PTPN3, P26045
# Sequence (P26045 505-587): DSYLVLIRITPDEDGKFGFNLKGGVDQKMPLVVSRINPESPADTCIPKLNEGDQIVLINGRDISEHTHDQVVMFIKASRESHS
# Protocol Details: holdup assay
# Parameters: key: below the threshold = too weak to quantify, mostly under pKd 3.1 to 4
# Assay Conditions: plain residues with an end cap or a label only (N-terminal biotin on a linker: ado-ado)
Measurement Kind: pKd
Just the number, please, no unit after it.

# Binder, pKd
rows = [
    ("VISSDDLTEL [CAPN6, Q9Y6Q1]", 4.12),
    ("QLKSGRDSTV [TMEM178A, Q8NBL3]", 4.4),
    ("KEKASTETEC [TRPM1, Q7Z4N2]", 4.9),
    ("WAKEKQHTRL [SLC17A1, Q14916]", 3.85),
    ("EAVTVESTSL [SLC22A11, Q9NSA0]", 4.62),
    ("VYEVPVETKF [SLC26A3, P40879]", 4.84),
    ("QKASRNESTF [POLR1D, P0DPB6]", 4.62),
    ("MLPANYVEAI [NEB, P20929]", 3.64),
    ("QRYPGNQTTC [CCL24, O00175]", 3.66),
    ("YAEKRMLTEV [KCNA6, P17658]", 4.32),
]

Data point: VCMGDHWFDV [PRKN, O60260] ; pKd = 3.49

Data point: QKNKDREYYV [NRXN3, Q9HDB5] ; pKd = 4.37

Data point: KPDKQEEFYA [SDC3, O75056] ; pKd = 3.8

Data point: EPAKETTTNV [SLC2A3, P11169] ; pKd = 4.49

Data point: IQISELETNV [SLC1A7, O00341] ; pKd = 4.84

Data point: LPPPESESKV [KCNJ9, Q92806] ; pKd = 4.4

Data point: GTMFLRETSL [GUCY1A2, P33402] ; pKd = 5.04

Data point: NKSEPFLTWL [WWTR1, Q9GZV5] ; pKd = 4.74

Data point: TKDKVQETQI [LRRC4, Q9HBW1] ; pKd = 5.05
